Test system: prostatic - PC-3
test.summary: Antiproliferative assay (MTT) PC-3
condition.label: PC-3, 100 µM
assay.endpoint: Average of Relative viability of cells (%)
Give a bare numeral; the unit % is implied.

Solved entries:
Cc1ccc(/C=C/C(=O)c2sc(SCC(=O)Nc3nccs3)nc2C)cc1 [Compound 13d] | 7.6
Cc1nc(SCC(=O)Nc2nccs2)sc1C(=O)/C=C/c1ccc(Cl)cc1 [Compound 13b] | 17.1
Cc1ccc(-c2csc(NC(=O)CSc3nc(C)c(C(=O)/C=C/c4ccc(F)cc4)s3)n2)cc1 [Compound 10m] | 36.8
Cc1nc(SCC(=O)Nc2nccs2)sc1C(=O)/C=C/c1ccc(F)cc1 [Compound 13c] | 28.8
COc1ccc(/C=C/C(=O)c2sc(SCC(=O)Nc3nc(-c4ccc(C)cc4)cs3)nc2C)cc1 [Compound 10o] | 14.3
Cc1ccc(/C=C/C(=O)c2sc(SCC(=O)Nc3nc(-c4ccccc4)cs3)nc2C)cc1 [Compound 10d] | 18.7

GET /values?readout=Average of Relative viability of cells (%)&item= Cc1nc(SCC(=O)Nc2nc(-c3ccc(Cl)cc3)cs2)sc1C(=O)/C=C/c1ccc(F)cc1 [Compound 10h] 36.5

What measured Average of Relative viability of cells (%) goes with Cc1nc(SCC(=O)Nc2nc(-c3ccc(Cl)cc3)cs2)sc1C(=O)/C=C/c1ccccc1 [Compound 10f] ? 24.2
